biological target: RSV fusion glycoprotein (RSV-F) (respiratory syncytial virus); assay: SPR; F protein loaded on streptavidin sensors, mAb in solution

binder | endpoint-unit | Kd
MPK99 (antibody, V domains shown, VH and VL only) VH: EVQLVESGGGLVKPGGSLRLSCAASGFTISGYYMIWIRQSPGKGLEWISDISASSSYTDYADSVKGRFTISRDNGQNTVYLQMNSLRAEDTAVYYCATEQVPSPGPFDLWGQGTLVTVSS VL: QSVVTQPPSVSGAPGLRVTISCSGTSSNIGRGYDVHWYQQFPGQSPKLLIYRNTNRPSGVPDRFSGFKSGSSASLAIAGLQAEDEADYYCQSYDRSLGGWVFGGGTRLIVL | pM | 150
MPK141 (antibody, V domains shown, VH and VL only) VH: EVQLVESGGGLVKPGGSLRLSCAASGFTISGYYMTWIRQAPGKGLEWISYISGSSSYTNYADSVKGRFTISRDNGRNSVYLQMNSLRADDTGVYYCAREETPSPGPFDSWGQGILVTVSS VL: QSVLTQPPSVSGAPGQRIIISCIGSSSNIGTGYDVHWYQQLPGRAPKLLISRNTNRPSGIPDRFSGSKSGTSASLAITGLQADDEADYYCQSYDRGLDGWVFGGGTKLTVL | pM | 130
MPK136 (antibody, V domains shown, VH and VL only) VH: EVQLVESGGGLVKPGGSLRLSCEASGFSLSGYYMIWIRQAPGKGLEWISSISGSGNYINYADSVKGRFTVSRDNGHNTLYLQMNSLRVEDTAVYYCATEQTPSPGPFDHWGQGTLVTVSS VL: QVQLVQPPSVSGAPGQRVSISCTGTSSNIGTGYDVHWYQQFPGTSPKLLIYRNTNRPSGVPDRFSGSKSGSSASLAIAGLQAEDEADYYCQSYDRSVSGWVFGGGTKLTVL | pM | 1
MPK144 (antibody, V domains shown, VH and VL only) VH: EVQLVESGGGLVRPGGSLRLSCAASGFTFTGYYMMWIRQAPGKGLEWISDISSSSSYTNYADSVKGRFAISRDNAQNTLYLQMNSLRAEDTAVYYCATEQVPSPGPFDLWGQGTLVTVSS VL: QSVLTQPPSVSGAPGQRVTISCTGSSSNFGAGYDVHWYQQFPGTSPKLLIYRNTNRPSGVPDRFSGSKSGTSASLAITGLQAEDEADYYCQSYDRSLTGWVFGGGTKLTVL | pM | 1
MPK73 (antibody, V domains shown, VH and VL only) VH: EVQLVESGGGLVKPGGSLTLSCAASGFSISGYGMNWVRQAPGRGLEWVASISASSTYIYYADSMKGRFTISRDNGKTSLYLQMKSLRAEDTAVYYCARAPIEPPYFDLWGRGTLVTVSS VL: QSVLTQPPSVSGAPGQRVTISCTGSNSNIGAGYDVHWYQHLPGKAPKVLIYGNNNRPSGVPDRFSGSNSGASASLAISGLQAEDEADYFCQSYDRRLSGPIFGGGTKLTVL | pM | 12
MPK36-v3 (antibody, V domains shown, VH and VL only) VH: EVQLVESGGGLVKPGGSLRLSCAASFTISGYYMIWIRQAPGKGLEWISYISGSSTYTNYADSVKGRFTISRDNGQNTLYLHMTSLRADDTALYYCATEQTPSPGPFDLWGQGTLVTVSS VL: QTVVTQPPSVSGAPGQRVTISCSGTSSNIGAGYDVHWYQQFPGTSPKLLIYRNFNRPSGVPDRFSGSKSGSSASLAIAGLQAEDEADYYCQSYDKSLDGWVFGGGTKVTVL | pM | 5.6
MPK86 (antibody, V domains shown, VH and VL only) VH: EVQLVESGGGLVKPGGSLRLSCAASGFSISGYYMIWIRQAPGRGLEWISDISASSTYTDYADSVKGRFTISRDNGQNTVYLQMNNLRADDTALYYCATEQTPSPGPFDLWGQGTLVTVSS VL: QSVVTQPPSVSGAPGQRVIISCSGRSSNIGAGYDVHWYQHFPGTSPKLLIYRNTNRPSGVPDRFSASTSATSASLAITGLQADDEADYYCQSYDRNLGGWVFGGGTKLTVL | pM | 1
MPK149 (antibody, V domains shown, VH and VL only) VH: QVQLVESGGGLVKPGGSLRLSCEASGFTISGYFMIWIRQAPGKGLEWISSISGSSTYTDYAESVKGRFTISRDNGRSTLYLQMNSLRVEDTAVYYCATEQTPSPGPFDLWGQGTLVTVSS VL: QSVVTQPPSVSGAPGQRVTISCTGTSSNIGAGYDVHWYQQFPGTSPRLLINRNTNRPSGVPDRFSGSQSGSSASLAIAGLQAEDEADYYCQSYDRSVSGWVFGGGTKLTVL | pM | 1
MPK126 (antibody, V domains shown, VH and VL only) VH: EVQLVESGGGLVKPGGSMRLSCAASGVTLSGYYMIWIRQAPGKGLEWISDISASSTYTDYADSVKGRFTVSRDNSQNTVYLQMNSLRAEDTAVYYCATEQTPSPGPFDLWGQGTLVTVSS VL: QSVLTQPPSVSGAPGQRVTISCTGSSSNVGAGYDVHWYQQFPGTSPKLLIYRNTNRPSGVPDRFSGFKSGTSASLAITGLEAEDEADYYCQSYDRSLSGWVFGAGTKLTVL | pM | 1
MPK145 (antibody, V domains shown, VH and VL only) VH: EVQLVESGGGLVEPGGSLRLSCAASGFTISGYGMSWVRQAPGKGLEWVSSISASSSYIYYGDAMKGRITISRDNGWNSMYLQMNSLRTEDTAVYYCATAPIEPPYFDLWGRGTLVTVSS VL: QSVVTQPPSVSGAPGQRVTISCTGSSSNIGAGYDVHWYQQFPGKAPKVLIYGNNNRPSGVPDRFAASNSGASASLAITGLQAEDEAAYFCQSYDRRLSGPVFGGGTKLTVL | pM | 1
